Dear all, this message contains pIC50 results, target or system Carbonic anhydrase 2 (Bos taurus).
Numbers only, as −log10 of the molar value.

Below are worked cases with known answers.
# Structure string, pIC50
data = [
    ("O=[N+]([O-])c1ccccc1S(=O)(=O)Nc1ccc(C(c2c[nH]c3ccc(Cl)cc23)c2c[nH]c3ccc(Cl)cc23)cc1", 4.35),
    ("O=S(=O)(Nc1ccc(C(c2c[nH]c3ccccc23)c2c[nH]c3ccccc23)cc1)c1cc(Cl)cc(Cl)c1O", 4.24),
    ("Cc1ccc([N+](=O)[O-])cc1S(=O)(=O)Nc1ccc(C(c2c[nH]c3ccc(Br)cc23)c2c[nH]c3ccc(Br)cc23)cc1", 4.35),
    ("O=[N+]([O-])c1cc(S(=O)(=O)Nc2ccc(C(c3c[nH]c4ccc(Br)cc34)c3c[nH]c4ccc(Br)cc34)cc2)ccc1Cl", 4.08),
    ("O=[N+]([O-])c1ccc(S(=O)(=O)Nc2ccc(C(c3c[nH]c4ccc(Cl)cc34)c3c[nH]c4ccc(Cl)cc34)cc2)c([N+](=O)[O-])c1", 4.81),
]

Consider the following items and state reported pIC50 for each.
1. O=S(=O)(Nc1ccc(C(c2c[nH]c3ccc(Br)cc23)c2c[nH]c3ccc(Br)cc23)cc1)c1cc(Cl)cc(Cl)c1O
2. O=S(=O)(Nc1ccc(C(c2c[nH]c3ccc(Br)cc23)c2c[nH]c3ccc(Br)cc23)cc1)c1ccc2ccccc2c1
3. O=S(=O)(Nc1ccc(C(c2c[nH]c3ccc(Cl)cc23)c2c[nH]c3ccc(Cl)cc23)cc1)c1cc(Cl)cc(Cl)c1O
4. Cc1ccc([N+](=O)[O-])cc1S(=O)(=O)Nc1ccc(C(c2c[nH]c3ccc(Cl)cc23)c2c[nH]c3ccc(Cl)cc23)cc1

1: 4.73; 2: 4.04; 3: 4.69; 4: 4.84

Requested read-out pIC50, target or system Carbonic anhydrase 2 (Bos taurus), entry O=[N+]([O-])c1ccc(S(=O)(=O)Nc2ccc(C(c3c[nH]c4ccc(Br)cc34)c3c[nH]c4ccc(Br)cc34)cc2)cc1
4.19
